- Test system: Aspergillus flavus
- test-description: Antifungal activity against Aspergillus flavus NBRC 6343 after 48 hrs by broth microdilution method
- Assay type: functional
- experimental-setup: NBRC 6343, 48 h
Starred links: 1 amine or outer side, 2 acyl side, 3 side chain; linkers in the order of their positions; H or OH if unused. Positions of bridges follow the written chain, without caps; N, C: chain ends. Non-standard residues stand in square brackets, D forms with d. Residues, ends and D or L forms follow the SMILES beside them. *: point of attachment. hTyr(3S-OH,4S-OH,3'-OSO3H) = N[C@H](C(=O)O)[C@H](O)[C@@H](O)c1ccc(O)c(OS(=O)(=O)O)c1; Orn(4R-OH,5R-OH) = O=C([C@H](C[C@@H](O)[C@@H](O)N[*:3])N[*:1])[*:2]; Pro(3S-OH,4S-Me) = C[C@H]1CN[C@H](C(=O)O)[C@H]1O; X1 = CCCCCOc1ccc(-c2cc(-c3ccc(C(=O)*)cc3)no2)cc1; Gln(3R-OH) = NC(=O)C[C@@H](O)[C@H](N)C(=O)O; Hyp = O=C(O)[C@@H]1C[C@@H](O)CN1
Property: MIC; scope: individual molecules

Would you please look over these solved cases?
molecule	measure-name	val
N=C(N)c1ccc(OCCCC2CCN(CCCOc3ccc(C(=N)N)cc3)CC2)cc1	MIC	0.5 µg/mL
OC(Cn1cncn1)(Cn1cncn1)c1ccc(F)cc1F	MIC	> 64 µg/mL
C[C@@H]1[C@H](O)[C@@H](C)/C=C/C=C/C=C/C=C/C=C/C=C/C=C/[C@H](O[C@@H]2O[C@H](C)[C@@H](O)[C@H](N)[C@@H]2O)C[C@@H]2O[C@](O)(C[C@@H](O)C[C@@H](O)[C@H](O)CC[C@@H](O)C[C@@H](O)CC(=O)O[C@H]1C)C[C@H](O)[C@H]2C(=O)O	MIC	2 µg/mL
C[C@@H](c1ncncc1F)[C@](O)(Cn1cncn1)c1ccc(F)cc1F	MIC	0.5 µg/mL

Then there is this molecule:
Q: Indicate the recorded MIC value for this molecule: CCCCCOc1ccc(-c2cc(-c3ccc(C(=O)N[C@H]4C[C@@H](O)[C@@H](O)NC(=O)[C@@H]5[C@@H](O)[C@@H](C)CN5C(=O)[C@H]([C@H](O)CC(N)=O)NC(=O)[C@H]([C@H](O)[C@@H](O)c5ccc(O)c(OS(=O)(=O)O)c5)NC(=O)[C@@H]5C[C@@H](O)CN5C(=O)[C@H]([C@@H](C)O)NC4=O)cc3)no2)cc1 [MICAFUNGIN] (X1-[Orn(4R-OH,5R-OH)]T[Hyp][hTyr(3S-OH,4S-OH,3'-OSO3H)][Gln(3R-OH)][Pro(3S-OH,4S-Me)]; lactam 1-C)
Result: 0.0625 µg/mL

* * *

Property: MIC; scope: individual compounds
- Test system: Rhizopus arrhizus
- test-description: Antifungal activity against Rhizopus oryzae NBRC 31005 after 24 hrs by broth microdilution method
- Type: functional
- experimental-setup: NBRC 31005, 24 h
Starred links: 1 amine or outer side, 2 acyl side, 3 side chain; linkers in the order of their positions; H or OH if unused. Positions of bridges follow the written chain, without caps; N, C: chain ends. Non-standard residues stand in square brackets, D forms with d. Residues, ends and D or L forms follow the SMILES beside them. *: point of attachment. hTyr(3S-OH,4S-OH,3'-OSO3H) = N[C@H](C(=O)O)[C@H](O)[C@@H](O)c1ccc(O)c(OS(=O)(=O)O)c1; Orn(4R-OH,5R-OH) = O=C([C@H](C[C@@H](O)[C@@H](O)N[*:3])N[*:1])[*:2]; Pro(3S-OH,4S-Me) = C[C@H]1CN[C@H](C(=O)O)[C@H]1O; X1 = CCCCCOc1ccc(-c2cc(-c3ccc(C(=O)*)cc3)no2)cc1; Gln(3R-OH) = NC(=O)C[C@@H](O)[C@H](N)C(=O)O; Hyp = O=C(O)[C@@H]1C[C@@H](O)CN1

compound	MIC
OC(Cn1cncn1)(Cn1cncn1)c1ccc(F)cc1F [FLUCONAZOLE]	> 64 µg/mL

Q: Indicate the recorded MIC value for this compound: CCCCCOc1ccc(-c2cc(-c3ccc(C(=O)N[C@H]4C[C@@H](O)[C@@H](O)NC(=O)[C@@H]5[C@@H](O)[C@@H](C)CN5C(=O)[C@H]([C@H](O)CC(N)=O)NC(=O)[C@H]([C@H](O)[C@@H](O)c5ccc(O)c(OS(=O)(=O)O)c5)NC(=O)[C@@H]5C[C@@H](O)CN5C(=O)[C@H]([C@@H](C)O)NC4=O)cc3)no2)cc1 [MICAFUNGIN] (X1-[Orn(4R-OH,5R-OH)]T[Hyp][hTyr(3S-OH,4S-OH,3'-OSO3H)][Gln(3R-OH)][Pro(3S-OH,4S-Me)]; lactam 1-C)
Result: > 64 µg/mL

FYI, the data here is from ChEMBL document CHEMBL1255303.
